Items are presented alongside their recorded inhibition at 25 µg/mL.
# Tested on: TNF-α produced by LPS activated THP-1 cells
# PROTOCOL_SUMMARY: Cytokine inhibition assay (TNF-α ELISA)
# Format: cell-based, human
# CONDITION_DETAILS: Homo sapiens, THP-1, 4 h, read-out: TNF-α % inhibition
Kindly provide the numeric value in % only, without the unit symbol.

// recorded inhibition at 25 µg/mL for CC(=O)[C@@]1(O)CC[C@H]2[C@@H]3C[C@@](C)(O)C4=CC(=O)CC[C@]4(C)[C@H]3C(=O)C[C@@]21C : 6.44

// recorded inhibition at 25 µg/mL for CC(O)C1CCC2C3CC(C)(O)C4=CC(=O)CCC4(C)C3C(=O)CC12C (stereo not shown) : 4.4

// recorded inhibition at 25 µg/mL for C[C@H]1C[C@H]2[C@@H]3[C@H](O)C[C@H]([C@@H](C)O)[C@@]3(C)CC(=O)[C@@H]2[C@@]2(C)CCC(=O)C=C12 : -8.23

// recorded inhibition at 25 µg/mL for CC(=O)[C@H]1[C@@H](O)C[C@H]2[C@@H]3C[C@H](C)C4=CC(=O)CC[C@]4(C)[C@H]3[C@@H](O)C[C@@]21C : 28.6

// recorded inhibition at 25 µg/mL for CC(=O)[C@H]1C[C@@H](O)[C@H]2[C@@H]3C[C@H](C)C4=CC(=O)CC[C@]4(C)[C@H]3C(=O)C[C@@]21C : -7.49

// recorded inhibition at 25 µg/mL for CC(=O)[C@H]1CC[C@@]2(O)[C@@H]3C[C@H](C)C4=CC(=O)CC[C@]4(C)[C@H]3C(=O)C[C@]12C : -4.04

// recorded inhibition at 25 µg/mL for CC(=O)[C@H]1CC[C@H]2[C@@H]3C[C@@](C)(O)C4=CC(=O)CC[C@]4(C)[C@H]3C(=O)C[C@]12C : -2.69

* * *

Items are presented alongside their recorded IC50.
# Tested on: zymosan activated PMNs (human whole blood cells)
# PROTOCOL_SUMMARY: Oxidative burst inhibition assay (luminol-enhanced chemiluminescence, zymosan-activated)
# Assay type: cell-based
# CONDITION_DETAILS: Whole blood cell; zymosan activated PMNs / human whole blood; tested at 1, 10, 100 μg/mL; mean ± SD of triplicates

Please review the entries below; each comes with its answer.
compound="CC(=O)[C@H]1CC[C@H]2[C@@H]3C[C@H](C)C4=CC(=O)CC[C@]4(C)[C@H]3[C@@H](O)C[C@]12C [Compound 1, reference compound]" recorded_metric=IC50 observed_value="> 100 µg/mL"
compound=CC(=O)[C@H]1[C@@H](O)C[C@H]2[C@@H]3C[C@H](C)C4=CC(=O)CC[C@]4(C)[C@H]3[C@@H](O)C[C@@]21C recorded_metric=IC50 observed_value="> 100 µg/mL"
compound="CC(C)Cc1ccc(C(C)C(=O)O)cc1 (stereo not shown) [Ibuprofen, reference compound]" recorded_metric=IC50 observed_value="2.5 µg/mL"

Here is another compound to look at.
// recorded IC50 for C[C@H]1C[C@H]2[C@@H]3[C@H](O)C[C@H]([C@@H](C)O)[C@@]3(C)CC(=O)[C@@H]2[C@@]2(C)CCC(=O)C=C12 : > 100 µg/mL
